system: HEL; assay: Cytotoxicity against human HEL cells assessed as growth inhibition after 48 hrs by MTT assay in presence of SAHA; assay type: functional, cell-based
measured_property: pIC50
Numbers only, as −log10 of the molar value.

Prompt line: Entry O=S(=O)(c1ccccc1)c1no[n+]([O-])c1S(=O)(=O)c1ccccc1 has what pIC50?
Response line: 6.28

---

target: Histone deacetylase (HDAC1 and HDAC2) (Homo sapiens, UniProt Q13547+Q92769); assay: Inhibition of HDAC1/HDAC2 in human HeLa cells using Boc-Lys(acetyl)-AMC as substrate after 30 mins by fluorescence assay; format: cell-based
Exercise: state measured IC50 for each of the molecules provided.

Here are 5 molecules together with their reported answers.
smi: O=S(=O)(c1ccccc1)c1c(OCCCCCCO)no[n+]1[O-]
measured_property: IC50
observed: > 1000 µM
--
smi: O=C(NO)c1ccc(Oc2no[n+]([O-])c2S(=O)(=O)c2ccccc2)cc1
measured_property: IC50
observed: 0.047 µM
--
smi: O=C(COCCOCCOc1no[n+]([O-])c1S(=O)(=O)c1ccccc1)NO
measured_property: IC50
observed: 4.3 µM
--
smi: O=C(COCCOc1no[n+]([O-])c1S(=O)(=O)c1ccccc1)NO
measured_property: IC50
observed: 1.5 µM
--
smi: O=C(CCCOc1no[n+]([O-])c1S(=O)(=O)c1ccccc1)NO
measured_property: IC50
observed: 0.047 µM

Then there is this molecule:
Prompt line: Entry O=C(/C=C/COc1no[n+]([O-])c1S(=O)(=O)c1ccccc1)NO has what IC50?
Response line: 3.7 µM
